Form field: pEC50 (one value per entry).
Target: cloned human M2 receptor (Homo sapiens)
Sequence (P08172 1-466): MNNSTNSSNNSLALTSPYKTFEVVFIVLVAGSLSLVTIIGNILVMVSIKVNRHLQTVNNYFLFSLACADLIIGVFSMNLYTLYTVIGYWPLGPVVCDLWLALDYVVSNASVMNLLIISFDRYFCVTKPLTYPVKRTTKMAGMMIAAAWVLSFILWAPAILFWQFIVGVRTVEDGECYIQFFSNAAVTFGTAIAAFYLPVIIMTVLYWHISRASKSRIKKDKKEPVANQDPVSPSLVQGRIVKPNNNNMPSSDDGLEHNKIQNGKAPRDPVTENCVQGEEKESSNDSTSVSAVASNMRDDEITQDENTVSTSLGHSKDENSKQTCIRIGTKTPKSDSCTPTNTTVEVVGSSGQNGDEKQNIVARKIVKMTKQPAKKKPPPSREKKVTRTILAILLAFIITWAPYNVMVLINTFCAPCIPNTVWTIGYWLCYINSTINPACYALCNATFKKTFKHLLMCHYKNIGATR
Experiment: hM2 receptor GTPγS binding
Conditions: CHO membranes expressing hM2, [35S]GTPγS binding
Keep in mind that pEC50 stands for -log10 of concentration in molar terms.

1) CC(C)OCC1CCC(N2CCC(N3C(=O)NC[C@H]4CCCC[C@@H]43)CC2)CC1 (single isomer, unassigned) [Example 03]: 5.77

Query :: May I ask what pEC50 has been recorded for O=C1COC2CCCC2N1C1CCN([C@H]2CC[C@@H](COCC3CC3)CC2)CC1 (single isomer, unassigned) ?
Result :: 5.66

----------
Molecular target: cloned human M2 receptor (Homo sapiens)
Sequence (P08172 1-466): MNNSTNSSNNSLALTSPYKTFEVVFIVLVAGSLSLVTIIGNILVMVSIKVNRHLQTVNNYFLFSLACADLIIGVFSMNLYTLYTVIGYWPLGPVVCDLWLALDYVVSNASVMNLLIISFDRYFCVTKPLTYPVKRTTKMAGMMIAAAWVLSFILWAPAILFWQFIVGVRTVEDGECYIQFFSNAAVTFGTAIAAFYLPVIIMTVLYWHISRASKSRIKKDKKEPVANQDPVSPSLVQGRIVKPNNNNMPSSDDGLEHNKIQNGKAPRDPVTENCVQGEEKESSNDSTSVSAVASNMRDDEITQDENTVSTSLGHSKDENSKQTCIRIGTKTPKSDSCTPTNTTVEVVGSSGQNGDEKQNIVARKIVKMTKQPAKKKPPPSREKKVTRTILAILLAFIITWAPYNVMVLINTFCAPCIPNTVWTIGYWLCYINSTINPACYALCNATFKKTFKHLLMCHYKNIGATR
Assay: hM2 receptor GTPγS binding
Conditions: CHO membranes expressing hM2, [35S]GTPγS binding
Experimental: hM2 Receptor GTPγS Binding Membranes produced from Chinese hamster ovary cells (CHO) expressing the cloned human M2 receptor (human Muscarinic receptor subtype 2, gene bank access NM_000739), are obtained from Perkin-Elmer (RBHM2M). […] The EC50, IC50 and Emax of the compounds of the invention are evaluated from 10-point dose-response curves (three fold concentration range) done in 60 μl in 384-well non-specific binding surface plate (Corning). […]
Form field: pEC50 (one value per entry).
Keep in mind that pEC50 stands for -log10 of concentration in molar terms.

Below, each entry is followed by its recorded pEC50 result.
1. CCOCC1CCC(N2CCC(N3C(=O)CO[C@H]4CCCC[C@@H]43)CC2)CC1 (single isomer, unassigned) [Example 14]: 5.55
2. CCCOCC1CCC(N2CCC(N3C(=O)NC[C@H]4CCCC[C@@H]43)CC2)CC1 (single isomer, unassigned) [Example 02]: 6.62
3. O=C1CO[C@H]2CCCC[C@@H]2N1C1CCN(C2CCC(COCC3CC3)CC2)CC1 (single isomer, unassigned) [Example 22]: 6.00

Query :: May I ask what pEC50 has been recorded for CCOCC1CCC(N2CCC(N3C(=O)CO[C@H]4CCCC[C@@H]43)CC2)C1 (single isomer, unassigned) [Example 45] ?
Result :: 5.21

Query :: Next up: CCOCC1CCC(N2CCC(N3C(=O)NC[C@H]4CCCC[C@@H]43)CC2)CC1 (mixture of isomers)
Result :: 6.46

Query :: Next up: O=C1CO[C@H]2CCCC[C@@H]2N1C1CCN(C2CCC(COCC(F)F)CC2)CC1 (single isomer, unassigned) [Example 27]
Result :: 6.06

Query :: Next up: CCCOCC1CCC(N2CCC(N3C(=O)NC[C@H]4CCCC[C@@H]43)CC2)CC1 (single isomer, unassigned) [Example 01]
Result :: 5.11

Query :: Next up: CCOCC1CCC(N2CCC(N3C(=O)CO[C@H]4CCCC[C@@H]43)CC2)C1 (single isomer, unassigned) [Example 44]
Result :: 5.80

----------
Form field: EC50 (one value per entry).
Target: cloned human M2 receptor (Homo sapiens)
Experiment: hM2 receptor GTPγS binding
Settings: CHO membranes expressing hM2, [35S]GTPγS binding
Give your result in µM as a bare value.

Below, each entry is followed by its recorded EC50 result.
1) O=C1CO[C@H]2CCCC[C@@H]2N1C1CCN(C2CC(COCC3CCC3)C2)CC1 (single isomer, unassigned): 4.4
2) CC(C)OCC1CCC(N2CCC(N3C(=O)CO[C@H]4CCCC[C@@H]43)CC2)CC1 (mixture of isomers) [Example 15]: 3.5
3) CC(C)OCC1CCC(N2CCC(N3C(=O)CO[C@H]4CCCC[C@@H]43)CC2)CC1 (single isomer, unassigned) [Example 19]: 8.7

Here is the next item to consider.
Query :: May I ask what EC50 has been recorded for O=C1NC[C@H]2CCCC[C@@H]2N1C1CCN(C2CCC(COCC(F)F)CC2)CC1 (single isomer, unassigned) [Example 50] ?
Result :: 0.34

----------
Target: hM5 (human Muscarinic receptor subtype 5) (Homo sapiens, UniProt P08912)
Construct: expressed in transfected cells; host or cells: CHO cells (ATCC)
Sequence (P08912 whole entry): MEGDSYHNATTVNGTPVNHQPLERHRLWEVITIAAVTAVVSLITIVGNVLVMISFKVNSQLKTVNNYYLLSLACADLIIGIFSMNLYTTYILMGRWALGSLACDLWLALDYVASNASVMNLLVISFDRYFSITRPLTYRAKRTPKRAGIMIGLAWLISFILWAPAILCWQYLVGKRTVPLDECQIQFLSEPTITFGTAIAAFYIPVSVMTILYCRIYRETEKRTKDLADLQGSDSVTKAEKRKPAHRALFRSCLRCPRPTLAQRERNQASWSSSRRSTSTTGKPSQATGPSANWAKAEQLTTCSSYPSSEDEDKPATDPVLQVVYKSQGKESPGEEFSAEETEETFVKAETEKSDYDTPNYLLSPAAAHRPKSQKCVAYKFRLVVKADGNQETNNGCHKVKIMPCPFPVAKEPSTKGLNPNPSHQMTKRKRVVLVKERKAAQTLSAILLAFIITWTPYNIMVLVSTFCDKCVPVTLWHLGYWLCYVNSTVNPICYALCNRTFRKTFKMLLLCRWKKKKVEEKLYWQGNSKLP
Test: Human M5 calcium mobilization FLIPR assay
Assay type: cell-based
Conditions: hM5 expressed in CHO cells, intracellular Ca2+ release (FLIPR)
pEC50: −log10 of the molar value.
Form field: pEC50 (one value per entry).

1. O=C1NC[C@H]2CCCC[C@@H]2N1C1CCN(C2CCC(COCC(F)F)CC2)CC1 (single isomer, unassigned) [Example 51]: < 4.80
2. CCOCC1CCC(N2CCC(N3C(=O)CO[C@H]4CCCC[C@@H]43)CC2)C1 (single isomer, unassigned) [Example 44]: 5.53
3. CC(C)OCC1CCC(N2CCC(N3C(=O)NC[C@H]4CCCC[C@@H]43)CC2)CC1 (single isomer, unassigned) [Example 04]: < 4.40
4. O=C1CO[C@H]2CCCC[C@@H]2N1C1CCN(C2CCC(COCC(F)F)CC2)CC1 (single isomer, unassigned) [Example 26]: < 4.40
5. CCOCC1CCC(N2CCC(N3C(=O)CO[C@H]4CCCC[C@@H]43)CC2)CC1 (single isomer, unassigned) [Example 13]: < 4.40

Query :: May I ask what pEC50 has been recorded for CC(C)OCC1CCC(N2CCC(N3C(=O)CO[C@H]4CCCC[C@@H]43)CC2)CC1 (single isomer, unassigned) [Example 19] ?
Result :: < 4.40

Query :: Next up: CC(C)OCC1CCC(N2CCC(N3C(=O)CO[C@H]4CCC(F)(F)C[C@@H]43)CC2)CC1 (single isomer, unassigned) [Example 37]
Result :: < 4.40

Query :: Next up: CCOCC1CCC(N2CCC(N3C(=O)CO[C@H]4CCCC[C@@H]43)CC2)C1 (single isomer, unassigned) [Example 45]
Result :: < 4.40

----------
Target: cloned human M4 receptor (Homo sapiens)
Sequence (P08173 1-479): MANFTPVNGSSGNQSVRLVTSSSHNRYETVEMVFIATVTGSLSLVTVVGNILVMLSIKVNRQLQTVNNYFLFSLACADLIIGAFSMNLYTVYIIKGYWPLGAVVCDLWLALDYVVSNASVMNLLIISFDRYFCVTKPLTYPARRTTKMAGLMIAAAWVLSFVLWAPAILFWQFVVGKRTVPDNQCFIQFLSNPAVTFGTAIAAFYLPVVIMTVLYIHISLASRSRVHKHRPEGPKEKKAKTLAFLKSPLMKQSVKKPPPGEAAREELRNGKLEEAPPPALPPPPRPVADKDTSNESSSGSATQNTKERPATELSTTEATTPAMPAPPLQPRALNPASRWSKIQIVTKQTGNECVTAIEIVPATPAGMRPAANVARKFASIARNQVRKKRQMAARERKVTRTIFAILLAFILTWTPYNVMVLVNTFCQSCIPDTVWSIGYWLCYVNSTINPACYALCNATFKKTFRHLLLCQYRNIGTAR
Assay: hM4 receptor GTPγS binding
Details: CHO membranes expressing hM4, [35S]GTPγS binding
Form field: EC50 (one value per entry).

Below, each entry is followed by its recorded EC50 result.
1. CCOCC1CC(N2CCC(N3C(=O)CO[C@H]4CCCC[C@@H]43)CC2)C1 (single isomer, unassigned) [Example 39]: > 90 µM
2. O=C1COC2CCCC2N1C1CCN([C@H]2CC[C@@H](COCC3CC3)CC2)CC1 (single isomer, unassigned) [Example 48]: > 11.7 µM
3. CCOCC1CCC(N2CCC(N3C(=O)CO[C@H]4CCCC[C@@H]43)CC2)C1 (single isomer, unassigned) [Example 44]: 5.36 µM

Query :: May I ask what EC50 has been recorded for CCOCC1CCC(N2CCC(N3C(=O)CO[C@H]4CCCC[C@@H]43)CC2)CC1 (single isomer, unassigned) [Example 14] ?
Result :: 4.84 µM

Query :: Next up: CC(C)OCC1CCC(N2CCC(N3C(=O)CO[C@H]4CCCC[C@@H]43)CC2)CC1 (single isomer, unassigned) [Example 19]
Result :: > 43.4 µM

Query :: Next up: CCOCC1CCC(N2CCC(N3C(=O)CO[C@H]4CCCC[C@@H]43)CC2)CC1 (single isomer, unassigned) [Example 13]
Result :: > 23.4 µM
